- System: P12-Ichikawa
- METHOD_DESCRIPTION: cell viability relative to DMSO control; higher = less cytotoxic
- TEST_PARAMETERS: RPMI 5 mM glucose + 10% FBS; 48 h; 0.19 µM
We begin with a simple list: items and their reported cell viability.
Output spec: scalar in %, unitless text.

Some compounds with known cell viability results, for comparison:
| COMPOUND | SYSTEM_TESTED | cell viability (%) |
| --- | --- | --- |
| CCC[S+](=O)([O-])Nc1ccc(F)c(C(=O)c2c[nH]c3ncc(Cl)cc23)c1F | P12-Ichikawa | 115 |
| NC[C@@H]1O[C@H](O[C@H]2[C@@H](O)[C@H](O[C@@H]3[C@@H](O)[C@H](N)C[C@H](N)[C@H]3O[C@H]3O[C@H](CN)[C@@H](O)[C@H](O)[C@H]3N)O[C@@H]2CO)[C@H](N)[C@@H](O)[C@@H]1O.O=S(=O)(O)O.O=S(=O)(O)O.O=S(=O)(O)O | P12-Ichikawa | 97.6 |
| OC1=CC=C(C=C1)\C2=C\OC3=C(C(=CC(=C3)O)O)C2=O | P12-Ichikawa | 126 |

What cell viability appears in the records for this compound with P12-Ichikawa? O=C(O)CCCCC(CCSCc1ccccc1)SCc1ccccc1 (stereo not drawn) 132

Another compound to look at: `O=C1\C=C/C=C2/[C@H]3CNC[C@H](C3)CN12` 125

Next: `CCc1cc2c(cc1N1CCC(N3CCOCC3)CC1)C(C)(C)c1[nH]c3cc(C#N)ccc3c1C2=O` 124

What do you have for `Cc1cn([C@H]2C=C[C@@H](CO)O2)c(=O)[nH]c1=O` ? 104

Moving on to `Cc1ccc([N+](=O)[O-])cc1[S+](=O)([O-])N(C)/N=C/c1cnc2ccc(Br)cn12` 40.9

Next compound: `O=S(=O)([O-])CCS.[Na+]` 121

Same question for `CN1CCN(c2c(F)cc3c(=O)c(C(=O)O)cn(CCF)c3c2F)CC1` please. 121

CCC(C)N1\N=C/N(C1=O)C2=CC=C(C=C2)N3CCN(CC3)C4=CC=C(OC[C@H]5CO[C@@](C[N]6C=NC=N6)(O5)C7=CC=C(Cl)C=C7Cl)C=C4 (stereo partly drawn) ? 115

Thanks! And `CN(C)c1ccc2nc3ccc(N(C)C)cc3[s+]c2c1` ? 124

Quick one: `O=C(CCCCCCC(=O)Nc1ccc([C@H]2O[C@@H](CSc3nc(-c4ccccc4)c(-c4ccccc4)o3)C[C@@H](c3ccc(CO)cc3)O2)cc1)NO` 116
